- experimentalDetails: qHTS assay to identify small molecule agonists of the AP-1 signaling pathway - cell viability counter screen (AID 1159525); further: nearly all actives have a fitted effect of over 55% in size
- experimentalContext: ME-180 (cervical carcinoma) AP-1-bla cells viability, ATP luminescence, 5 h; series mostly up to 76.8 µM
Results filed as inconclusive are left out. Activity calls are given as the source filed them. The call rests on the fitted dose curve.
quantity: viability change, negative = cytotoxic

Sample records with viability change, negative = cytotoxic:
{"columns": ["molecule", "viability change, negative = cytotoxic"],
 "data": [
  ["COc1ccc(-n2nc(C(F)F)cc2-c2ccc(S(C)=O)cc2)cc1 (centres undefined)", "inactive"],
  ["COc1ccc2nc(S(=O)Cc3ncc(C)c(OC)c3C)[nH]c2c1 (centres undefined)", "inactive"],
  ["CCCc1nc2c(C)cc(-c3nc4ccccc4n3C)cc2n1Cc1ccc(-c2ccccc2C(=O)O)cc1", "inactive"],
  ["CNCc1ccc(NC(=O)c2c[nH]c3c2C(=O)CCC3)cc1", "inactive"],
  ["CC(C)(C)NCC(O)COc1cccc2c1C[C@H](O)[C@H](O)C2 (some centres undefined)", "inactive"],
  ["CN(C)CC/C=C1\\c2ccccc2Sc2ccc(Cl)cc21", "inactive"],
  ["Cc1ccc2c(c1)CCCN2", "inactive"],
  ["Cc1ccc(N(CC2=NCCN2)c2cccc(O)c2)cc1", "inactive"]
]}

Please examine the following record next.
For the molecule C[C@@H]1[C@H](O)[C@@H](C)/C=C/C=C\C=C\C=C\C=C\C=C\C=C\[C@H](O[C@@H]2O[C@H](C)[C@@H](O)[C@H](N)[C@@H]2O)C[C@@H]2O[C@](O)(C[C@@H](O)C[C@@H](O)[C@H](O)CC[C@@H](O)C[C@@H](O)CC(=O)O[C@H]1C)C[C@H](O)[C@H]2C(=O)O (stereo in doubt) , give its measured viability change, negative = cytotoxic value. inactive
